src = paper PMC8097242

Target: N-terminal CRD of hGalectin-4 (Gal-4N) (Homo sapiens, UniProt P56470)
Construct: N-terminal CRD of hGalectin-4 (amino acids 1–150, including an additional C-terminus His-Tag); His-Tag (C, cleaved yes); made in house; host or cells: E. coli BL21 (pET29b)
Sequence (P56470 1-150): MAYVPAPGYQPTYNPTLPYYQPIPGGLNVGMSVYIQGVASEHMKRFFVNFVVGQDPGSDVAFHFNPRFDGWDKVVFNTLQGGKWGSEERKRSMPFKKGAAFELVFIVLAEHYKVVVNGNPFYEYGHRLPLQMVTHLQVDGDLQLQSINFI
Test: 1H Saturation Transfer Difference (STD) NMR epitope mapping
Assay type: binding
Details: 1H-residue H5Galβ
PROPERTY LABEL: STD-AF

These recorded examples may help you get a feel for the data.
{"COMPOUND": "CC1OC(OC2C(OC3C(CO)OC(O)C(O)C3O)OC(CO)C(O)C2OC2OC(CO)C(O)C(O)C2O)C(O)C(O)C1O (stereo not drawn) [B type-6 (tetra)]", "STD-AF": 0.0374}
{"COMPOUND": "CC(=O)N[C@H]1[C@@H](O[C@H]2[C@@H](O)[C@@H](CO)O[C@@H](O[C@H]3[C@@H](O)[C@@H](CO)O[C@@H](O[C@@H]4[C@@H](O)[C@H](O)O[C@H](CO)[C@@H]4O)[C@@H]3NC(C)=O)[C@@H]2O[C@@H]2O[C@@H](C)[C@@H](O)[C@@H](O)[C@@H]2O)O[C@H](CO)[C@H](O)[C@@H]1O [A type-4 (penta)]", "STD-AF": 0.0152}

a: CC(=O)N[C@@H]1[C@@H](O[C@@H]2O[C@H](CO)[C@H](O)[C@H](O[C@H]3O[C@H](CO)[C@H](O)[C@H](O)[C@H]3O)[C@H]2O[C@@H]2O[C@@H](C)[C@@H](O)[C@@H](O)[C@@H]2O)[C@H](O)[C@@H](CO)O[C@H]1O [B type-1 (tetra)]
b: CC(=O)NC1C(O)OC(CO)C(OC2OC(CO)C(O)C(OC3OC(CO)C(O)C(O)C3O)C2OC2OC(C)C(O)C(O)C2O)C1O (stereo not drawn) [B type-2 (tetra)]
Asked: Smaller STD-AF value, a vs b ? Give the label under which the chosen entry appears.
Given back: a
(a: 0.0094, b: 0.0148)

P: CC(=O)NC1C(OC2C(O)C(CO)OC(OC3C(CO)OC(O)C(O)C3O)C2OC2OC(C)C(O)C(O)C2O)OC(CO)C(O)C1O (stereo not drawn) [A type-6 (tetra)]
Q: CC(=O)NC1C(OC2C(O)C(O)OC(CO)C2O)OC(CO)C(O)C1OC1OC(CO)C(O)C(OC2OC(CO)C(O)C(O)C2O)C1OC1OC(C)C(O)C(O)C1O (stereo not drawn) [B type-4 (penta)]
Asked: Smaller STD-AF value, P vs Q ? Give the label under which the chosen entry appears.
Given back: Q
(Q: 0.0081, P: 0.0158)

###

Molecular target: N-terminal CRD of hGalectin-4 (Gal-4N) (Homo sapiens, UniProt P56470)
Construct: N-terminal CRD of hGalectin-4 (amino acids 1–150, including an additional C-terminus His-Tag); His-Tag (C, cleaved yes); made in house; host or cells: E. coli BL21 (pET29b)
Test: 1H Saturation Transfer Difference (STD) NMR epitope mapping
Assay type: binding
Conditions: 1H-residue H1 Fuc
Description: ^1H-saturation transfer difference NMR spectra were acquired for mixtures of Gal-4N (50 μM) with a 50-fold excess of ligand. Protein aromatic irradiation afforded the best STD intensities and thus these are discussed henceforth. The STD NMR spectra were very similar among the different ligands with respect to both the observed glycan protons and their intensities. […]
PROPERTY LABEL: STD-AF

These recorded examples may help you get a feel for the data.
{"COMPOUND": "CC(=O)NC1C(O)OC(CO)C(OC2OC(CO)C(O)C(OC3OC(CO)C(O)C(O)C3O)C2OC2OC(C)C(O)C(O)C2O)C1O (centres unmarked) [B type-2 (tetra)]", "PROPERTY LABEL": "STD-AF", "RECORDED MEASUREMENT": 0.0024}
{"COMPOUND": "CC(=O)NC1C(OC2C(O)C(O)OC(CO)C2O)OC(CO)C(O)C1OC1OC(CO)C(O)C(OC2OC(CO)C(O)C(O)C2O)C1OC1OC(C)C(O)C(O)C1O (centres unmarked) [B type-4 (penta)]", "PROPERTY LABEL": "STD-AF", "RECORDED MEASUREMENT": 0.0020}
{"COMPOUND": "CC(=O)N[C@@H]1[C@@H](O[C@@H]2O[C@H](CO)[C@H](O)[C@H](O[C@H]3O[C@H](CO)[C@H](O)[C@H](O)[C@H]3O)[C@H]2O[C@@H]2O[C@@H](C)[C@@H](O)[C@@H](O)[C@@H]2O)[C@H](O)[C@@H](CO)O[C@H]1O [B type-1 (tetra)]", "PROPERTY LABEL": "STD-AF", "RECORDED MEASUREMENT": 0.0000}

1: CC1OC(OC2C(OC3C(CO)OC(O)C(O)C3O)OC(CO)C(O)C2OC2OC(CO)C(O)C(O)C2O)C(O)C(O)C1O (centres unmarked) [B type-6 (tetra)]
2: CC(=O)NC1C(OC2C(O)C(CO)OC(OC3C(CO)OC(O)C(O)C3O)C2OC2OC(C)C(O)C(O)C2O)OC(CO)C(O)C1O (centres unmarked) [A type-6 (tetra)]
Asked: Smaller STD-AF value, 1 vs 2 ? Give the label under which the chosen entry appears.
Given back: 2
(2: 0.0020, 1: 0.0105)
